test system: Plasmodium falciparum; experiment: Screen against P. falciparum Asexual Blood Stage (ABS), at 5uM; assay type: functional, Dd2; conditions: tested at 5 uM
In all, about 65,000 compounds went through this assay and about 2,100 (3.2%) showed an effect of 50% or more. The median lay at about -52%. This excerpt belongs to a sample that is enriched for strong results.
Hi there, I'd appreciate the recorded INHIBITION for every entry that follows.
Reply numerically in %, unit not repeated.

Return INHIBITION measured with Plasmodium falciparum given this compound: "O=C(Cc1ccc2c(c1)OCC2)Nc1nc[nH]n1"
-116

// repeat for "Cc1noc(-c2ccnc(Oc3ccc(CN4CCCC4)cc3C)c2)n1" and report
53.3

What would you report for "Cc1occc1C(=O)N1C[C@@H]2OCCN(CCN3CCCC3)[C@@H]2C1" ?
-86.8
